- TARGET_OR_SYSTEM: full-length beta-catenin (Axin site) (Homo sapiens)
- Construct: 15 nM full-length beta-catenin, 20 nM FITC labeled peptide in buffer
- Sequence (P35222 whole entry): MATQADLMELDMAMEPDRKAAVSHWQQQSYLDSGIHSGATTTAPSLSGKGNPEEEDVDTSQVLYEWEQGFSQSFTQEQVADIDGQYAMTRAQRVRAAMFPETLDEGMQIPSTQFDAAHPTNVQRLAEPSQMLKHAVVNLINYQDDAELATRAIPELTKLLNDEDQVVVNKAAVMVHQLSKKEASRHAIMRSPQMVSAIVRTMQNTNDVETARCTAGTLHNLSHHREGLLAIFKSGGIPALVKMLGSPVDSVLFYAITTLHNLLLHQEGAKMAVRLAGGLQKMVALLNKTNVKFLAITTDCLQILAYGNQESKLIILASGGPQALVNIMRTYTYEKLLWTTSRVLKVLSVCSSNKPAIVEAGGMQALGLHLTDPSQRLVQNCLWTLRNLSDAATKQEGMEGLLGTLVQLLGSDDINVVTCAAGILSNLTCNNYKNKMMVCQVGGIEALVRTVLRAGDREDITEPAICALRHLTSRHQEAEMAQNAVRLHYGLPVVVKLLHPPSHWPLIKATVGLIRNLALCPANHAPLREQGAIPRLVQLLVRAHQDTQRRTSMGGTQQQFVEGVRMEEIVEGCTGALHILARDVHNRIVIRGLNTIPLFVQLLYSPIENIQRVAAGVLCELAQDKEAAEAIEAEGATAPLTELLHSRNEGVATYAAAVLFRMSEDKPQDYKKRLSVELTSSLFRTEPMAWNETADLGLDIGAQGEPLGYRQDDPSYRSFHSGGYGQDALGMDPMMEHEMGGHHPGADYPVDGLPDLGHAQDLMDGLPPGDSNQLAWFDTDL
- ASSAY_INFO: Competition fluorescence polarization assay (Axin site probe)
- Type: binding
- MEASUREMENT_CONTEXT: competition fluorescence polarization, Table 2; read-out: in vitro FP EC50
pEC50: −log10 of the molar value.
OBSERVATION_TYPE: pEC50

Query string: What value of measured pEC50 is listed for CC[C@H](C)[C@@H]1NC(=O)[C@H](Cc2c[nH]cn2)NC(=O)[C@H](C)NC(=O)[C@H](CC(=O)O)NC(=O)[C@H](CC(C)C)NC(=O)[C@H]([C@@H](C)CC)NC(=O)[C@](C)(NC(=O)[C@H](C)NC(C)=O)CCCCCCC=CCOC(=O)N2CC[C@@](C(=O)N[C@@H](Cc3cccc4ccccc34)C(=O)N[C@H](C(=O)N[C@@H](Cc3c[nH]c4ccccc34)C(N)=O)C(C)C)(C2)NC1=O (single isomer, unassigned) [FP0365c, Ac-A-R8-I-L-D-A-H-I-MB-1NapA-V-W-NH2] ?
Result string: 6.30 to 7.00

Query string: What value of measured pEC50 is listed for CC[C@H](C)[C@@H]1NC(=O)C2(NC(=O)[C@H](CCC(N)=O)NC(=O)[C@@H]3CCCN3C(C)=O)CN(C2)C(=O)OCC=CCCCCC[C@@](C)(C(=O)N[C@@H](Cc2c[nH]cn2)C(=O)N[C@H](C(=O)N[C@@H](CCCNC(=N)N)C(=O)N[C@@H](CCCNC(=N)N)C(=O)N[C@H](C(=O)N[C@@H](Cc2c[nH]c3ccccc23)C(=O)N[C@@H](CCCNC(=N)N)C(N)=O)C(C)C)C(C)C)NC(=O)[C@H](CC(=O)O)NC(=O)[C@H](CC(C)C)NC1=O (single isomer, unassigned) [FP0728c, Ac-P-Q-MA-I-L-D-S7-H-V-R-R-V-W-R-NH2] ?
Result string: 5.30 to 6.30
